As shown below, each of these compounds has a reported DC50 value.
- target-or-system: Helios (Homo sapiens, UniProt Q9UKS7)
- Construct: endogenous in cells; host or cells: Jurkat cells, CRISPR/Cas9 knock-in of HiBit at the IKZF2 locus
- Sequence (Q9UKS7 whole entry): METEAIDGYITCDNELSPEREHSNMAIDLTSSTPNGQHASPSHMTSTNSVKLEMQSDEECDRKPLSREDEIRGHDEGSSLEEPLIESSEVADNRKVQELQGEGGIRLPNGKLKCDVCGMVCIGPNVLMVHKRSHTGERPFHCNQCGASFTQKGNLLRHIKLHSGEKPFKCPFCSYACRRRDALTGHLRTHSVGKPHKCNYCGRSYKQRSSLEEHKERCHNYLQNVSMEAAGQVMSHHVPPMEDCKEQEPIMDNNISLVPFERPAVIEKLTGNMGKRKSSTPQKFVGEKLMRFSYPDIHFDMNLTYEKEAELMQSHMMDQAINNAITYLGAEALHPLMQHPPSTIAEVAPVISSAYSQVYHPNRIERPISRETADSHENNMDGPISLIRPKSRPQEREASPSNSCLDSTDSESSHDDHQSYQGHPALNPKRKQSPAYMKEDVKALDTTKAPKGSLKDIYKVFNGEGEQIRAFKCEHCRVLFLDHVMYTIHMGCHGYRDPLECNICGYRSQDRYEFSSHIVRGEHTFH
- Sequence (Q96SW2 whole entry, further chain): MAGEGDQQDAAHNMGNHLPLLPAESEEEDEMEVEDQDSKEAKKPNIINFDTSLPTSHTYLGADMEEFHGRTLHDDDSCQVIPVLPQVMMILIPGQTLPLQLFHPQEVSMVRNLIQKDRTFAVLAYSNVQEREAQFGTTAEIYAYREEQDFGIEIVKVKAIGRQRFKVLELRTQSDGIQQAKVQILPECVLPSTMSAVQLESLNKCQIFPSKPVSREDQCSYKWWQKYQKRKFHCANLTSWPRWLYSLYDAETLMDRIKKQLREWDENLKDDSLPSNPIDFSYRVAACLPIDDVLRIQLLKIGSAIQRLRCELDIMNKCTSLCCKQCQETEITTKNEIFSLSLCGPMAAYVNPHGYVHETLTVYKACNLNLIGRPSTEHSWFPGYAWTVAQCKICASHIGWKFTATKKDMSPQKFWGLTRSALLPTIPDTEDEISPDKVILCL
- Sequence (Q16531 whole entry partner): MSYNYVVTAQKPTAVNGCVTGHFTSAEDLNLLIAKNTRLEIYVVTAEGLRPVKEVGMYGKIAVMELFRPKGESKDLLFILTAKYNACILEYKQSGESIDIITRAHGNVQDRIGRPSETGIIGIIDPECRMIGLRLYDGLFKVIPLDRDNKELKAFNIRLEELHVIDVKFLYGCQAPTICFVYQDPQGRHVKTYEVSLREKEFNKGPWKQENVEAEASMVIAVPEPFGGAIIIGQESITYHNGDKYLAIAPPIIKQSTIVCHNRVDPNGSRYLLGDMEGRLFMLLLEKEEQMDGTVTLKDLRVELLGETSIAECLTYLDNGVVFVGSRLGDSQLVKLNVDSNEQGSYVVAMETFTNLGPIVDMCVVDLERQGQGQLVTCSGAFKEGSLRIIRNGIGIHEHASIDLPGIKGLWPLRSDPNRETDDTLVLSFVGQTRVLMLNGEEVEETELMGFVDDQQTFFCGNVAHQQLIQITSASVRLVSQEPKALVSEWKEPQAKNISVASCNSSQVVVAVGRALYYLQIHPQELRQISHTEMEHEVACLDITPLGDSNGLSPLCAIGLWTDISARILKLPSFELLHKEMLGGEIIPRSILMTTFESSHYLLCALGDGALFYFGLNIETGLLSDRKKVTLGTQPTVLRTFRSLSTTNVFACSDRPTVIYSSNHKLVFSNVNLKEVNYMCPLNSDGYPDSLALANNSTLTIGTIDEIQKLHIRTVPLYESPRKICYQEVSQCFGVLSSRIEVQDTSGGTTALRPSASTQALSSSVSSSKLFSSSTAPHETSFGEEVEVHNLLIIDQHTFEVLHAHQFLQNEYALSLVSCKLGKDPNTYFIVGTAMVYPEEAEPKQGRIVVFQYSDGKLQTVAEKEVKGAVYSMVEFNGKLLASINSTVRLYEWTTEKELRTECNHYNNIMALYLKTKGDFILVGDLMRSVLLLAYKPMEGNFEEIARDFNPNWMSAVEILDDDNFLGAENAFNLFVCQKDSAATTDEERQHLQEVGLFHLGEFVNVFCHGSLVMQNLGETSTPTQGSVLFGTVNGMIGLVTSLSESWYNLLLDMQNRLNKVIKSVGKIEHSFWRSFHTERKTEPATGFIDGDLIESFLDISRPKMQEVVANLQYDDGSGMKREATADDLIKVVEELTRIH
- experiment-summary: Helios degradation in Jurkat/Helios/HiBit cells (Nano-Glo luminescence)
- Assay type: cell-based
- cond: 18 hr, read-out: Helios Jurkat Hibit IC50

compound | DC50
Cn1cncc1CN1CCC(c2c(F)cc3c(c2F)CN(C2CCC(=O)NC2=O)C3=O)CC1 (stereo not shown) | ≥ 10 µM

DC50 for O=C1CCC(N2Cc3cc(C4CCN(Cc5cccc6ncsc56)CC4)c(F)cc3C2=O)C(=O)N1 (stereo not shown) is ≥ 10 µM

DC50 for O=C1CCC(N2Cc3c(cc(F)c(C4(O)CCN(Cc5ccc6ccccc6n5)CC4)c3F)C2=O)C(=O)N1 (stereo not shown) is ≥ 10 µM

----------
- target-or-system: IKZF1 ZNF2_ZNF3 Q1F degron-tagged CD19 CAR (Homo sapiens, UniProt Q13422, Q146F)
- Construct: ZNF2_ZNF3 Q1F degron (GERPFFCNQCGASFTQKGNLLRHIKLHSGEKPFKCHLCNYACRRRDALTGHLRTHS); fused on or other part: anti-CD19 scFv, CD28 transmembrane domain, 4-1BB costimulatory domain, CD3 zeta signaling domain (the CAR that carries the degron), and Nluc
- Sequence (Q13422 whole entry Q146F, the tested form may be a part): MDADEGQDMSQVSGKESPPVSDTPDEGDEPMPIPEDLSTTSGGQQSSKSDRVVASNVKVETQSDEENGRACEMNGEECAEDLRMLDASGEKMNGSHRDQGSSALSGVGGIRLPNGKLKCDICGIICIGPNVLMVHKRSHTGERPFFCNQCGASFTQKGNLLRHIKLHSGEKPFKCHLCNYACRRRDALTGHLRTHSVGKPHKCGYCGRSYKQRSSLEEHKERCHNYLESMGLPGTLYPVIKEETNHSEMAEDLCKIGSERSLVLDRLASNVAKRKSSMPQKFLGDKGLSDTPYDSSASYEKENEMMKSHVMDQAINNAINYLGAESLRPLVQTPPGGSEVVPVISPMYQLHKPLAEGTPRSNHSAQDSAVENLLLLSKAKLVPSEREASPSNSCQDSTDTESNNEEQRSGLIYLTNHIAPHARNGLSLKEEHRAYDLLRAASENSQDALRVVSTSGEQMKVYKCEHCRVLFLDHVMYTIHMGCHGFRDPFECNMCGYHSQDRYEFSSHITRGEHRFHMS
- experiment-summary: Degradation of Q1F degron-tagged CD19 CAR in Jurkat cells (flow cytometry of CAR levels)
- Assay type: cell-based
- cond: Ymax is the % protein degraded; Jurkat cells expressing Q1F degron-tagged CD19 CAR; 18 hours; read-out: Q1F Jurkat-YMax
- Description: Q1F degron-targeting compounds were screened in Jurkat cells engineered to express a IKZF1 ZNF2_ZNF3 Q1F. The cell line was generated with lentiviral vectors containing CD19 CARs tagged with IKZF1 ZNF2_ZNF3 QIF Nluc, which were transduced into Jurkat cells. […] The cells were incubated at 4° C. in the staining reagents for 20 mins and then washed 3 times before being read on the flow cytometer. […] EC50 and Ymin values were calculated using the resulting titration curve. […]
measured-metric: Dmax (%)
Please reply with the bare figure in % and do not write the unit itself.

Below, 8 compounds whose answers are already recorded.
compound | Dmax / %
Cc1ccc(CN2CCC(O)(c3c(F)cc4c(c3F)CN(C3CCC(=O)NC3=O)C4=O)CC2)cc1F (stereo not shown) | 79.4
O=C1CCC(N2Cc3c(cc(F)c(C4CCN(Cc5nnc(-c6ccccc6)o5)CC4)c3F)C2=O)C(=O)N1 (stereo not shown) | 65.8
O=C1CCC(N2Cc3cc(C4CCN(Cc5ccc6c(c5)CCC6)CC4)c(F)cc3C2=O)C(=O)N1 (stereo not shown) | 91.6
O=C1CC[C@H](N2Cc3c(cc(F)c(C4CC5CCC(C4)N5Cc4ccc5ncsc5c4)c3F)C2=O)C(=O)N1 (stereo partly shown) | 92.2
O=C1CCC(N2Cc3c(cc(F)c(C(=O)N4Cc5cccnc5C4)c3F)C2=O)C(=O)N1 (stereo not shown) | 94.8
O=C1CCC(N2Cc3c(cc(F)c(C4(O)CCN(Cc5ccc6nc[nH]c6c5)CC4)c3F)C2=O)C(=O)N1 (stereo not shown) | 82.1
O=C1CCC(N2Cc3c(cc(F)c(C4CCN(Cc5ccc(F)cc5)CC4)c3F)C2=O)C(=O)N1 (stereo not shown) | 88.8
Cc1cc(CN2CCC(c3c(F)cc4c(c3F)CN(C3CCC(=O)NC3=O)C4=O)CC2)on1 (stereo not shown) | 82.3

Dmax for C[C@@H](CO)CN1CCC(c2c(F)cc3c(c2F)CN(C2CCC(=O)NC2=O)C3=O)CC1 (mixture of isomers) is 80.7

Dmax for O=C1CCC(N2Cc3c(cc(F)c(C4CCN(Cc5ccc6c(c5)OC(F)(F)O6)CC4)c3F)C2=O)C(=O)N1 (stereo not shown) is 92.2
